All figures here come from patent US12404268B2.

Record form. Attribute: ED50 (clonic seizure). Fill in for each entry.
# Test system: male Slc:ddY mice (pentetrazol-induced clonic seizure)
# Experiment notes: Model subcutaneously injected with pentetrazol (minimum seizure model, scPTZ)
# Assay type: in vivo, mouse
# Measurement conditions: 85 mg/kg pentetrazol s.c. 1 hour after oral dosing, observed 30 minutes

Query block: Name the value of ED50 (clonic seizure) reported for N#Cc1ccc2nc(Nc3cccnc3)n(-c3ccccc3)c(=O)c2c1 when tested on male Slc:ddY mice (pentetrazol-induced clonic seizure).
Result block: 0.74 mg/kg, p.o.

Query block: Name the value of ED50 (clonic seizure) reported for O=c1c2cc(F)cc(F)c2nc(Nc2cccnc2)n1-c1ccccc1 when tested on male Slc:ddY mice (pentetrazol-induced clonic seizure).
Result block: 4.17 mg/kg, p.o.

Query block: Name the value of ED50 (clonic seizure) reported for O=c1c2cc(F)ccc2nc(Nc2cncc(F)c2)n1-c1ccccc1 when tested on male Slc:ddY mice (pentetrazol-induced clonic seizure).
Result block: 0.27 mg/kg, p.o.

Query block: Name the value of ED50 (clonic seizure) reported for O=c1c2cc(F)ccc2nc(Nc2cccnc2)n1-c1ccccc1 when tested on male Slc:ddY mice (pentetrazol-induced clonic seizure).
Result block: 0.25 mg/kg, p.o.

Query block: Name the value of ED50 (clonic seizure) reported for O=c1c2ccccc2nc(Nc2cccnc2)n1-c1ccccc1 when tested on male Slc:ddY mice (pentetrazol-induced clonic seizure).
Result block: 4.17 mg/kg, p.o.

Query block: Name the value of ED50 (clonic seizure) reported for Cc1ccccc1-n1c(Nc2cncc(F)c2)nc2ccc(C#N)cc2c1=O when tested on male Slc:ddY mice (pentetrazol-induced clonic seizure).
Result block: 0.065 mg/kg, p.o.

Query block: Name the value of ED50 (clonic seizure) reported for Cc1ccccc1-n1c(Nc2cccnc2)nc2ccc(C#N)cc2c1=O when tested on male Slc:ddY mice (pentetrazol-induced clonic seizure).
Result block: 0.25 mg/kg, p.o.

* * *

# Tested on: male Slc:ddy mice
# Experiment notes: Rotarod evaluation (motor coordination)
# Format: in vivo, mouse
# Measurement conditions: rotarod 15 rpm, 50 minutes after oral dosing, 180 seconds
# Procedure: The test evaluates the effect of suppressing the ability of motor coordination of a medicament. Male Slc:ddy mice (body weight: 20 to 30 g) were trained to walk for 5 minutes with a rotarod apparatus (apparatus for rotating a cylindrical bar with a 4 cm diameter, 12 rpm) on the day of the test. A test compound was orally administered to a group of 5 mice. […] Animals that fell off within 180 seconds due to incoordination were counted. […] 0.5% methylcellulose solution was administered for the control.
Assay metric: TD50 (dosage at which 50% of animals fall off)

Query block: Please give measured TD50 (dosage at which 50% of animals fall off) of the following entry: Cc1ccccc1-n1c(Nc2cncc(F)c2)nc2ccc(C#N)cc2c1=O
Result block: 0.2 mg/kg, p.o.

Query block: Please give measured TD50 (dosage at which 50% of animals fall off) of the following entry: O=c1c2cc(F)cc(F)c2nc(Nc2cccnc2)n1-c1ccccc1
Result block: 8.83 mg/kg, p.o.

Query block: Please give measured TD50 (dosage at which 50% of animals fall off) of the following entry: O=c1c2cc(F)ccc2nc(Nc2cccnc2)n1-c1ccccc1
Result block: 1.8 mg/kg, p.o.

Query block: Please give measured TD50 (dosage at which 50% of animals fall off) of the following entry: Cc1ccccc1-n1c(Nc2cccnc2)nc2ccc(C#N)cc2c1=O
Result block: 2.0 mg/kg, p.o.

Query block: Please give measured TD50 (dosage at which 50% of animals fall off) of the following entry: O=c1c2cc(F)ccc2nc(Nc2cncc(F)c2)n1-c1ccccc1
Result block: 1.8 mg/kg, p.o.

Query block: Please give measured TD50 (dosage at which 50% of animals fall off) of the following entry: N#Cc1ccc2nc(Nc3cccnc3)n(-c3ccccc3)c(=O)c2c1
Result block: 2.0 mg/kg, p.o.

Query block: Please give measured TD50 (dosage at which 50% of animals fall off) of the following entry: O=c1c2ccccc2nc(Nc2cccnc2)n1-c1ccccc1
Result block: 7.38 mg/kg, p.o.
